experimentalSystem: CDK1 CCNB1 (human) (UniProt P06493+P14635)
Sequence (P06493 whole entry, looked up): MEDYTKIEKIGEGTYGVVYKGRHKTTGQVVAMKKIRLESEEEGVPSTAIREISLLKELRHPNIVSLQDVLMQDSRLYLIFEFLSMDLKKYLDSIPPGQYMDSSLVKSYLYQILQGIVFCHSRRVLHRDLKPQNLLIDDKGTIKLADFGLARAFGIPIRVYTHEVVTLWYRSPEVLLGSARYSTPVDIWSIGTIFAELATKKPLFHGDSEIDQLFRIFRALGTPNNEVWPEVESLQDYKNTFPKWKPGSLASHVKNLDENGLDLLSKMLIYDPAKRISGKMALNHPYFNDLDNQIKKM
Sequence (P14635 whole entry, looked up): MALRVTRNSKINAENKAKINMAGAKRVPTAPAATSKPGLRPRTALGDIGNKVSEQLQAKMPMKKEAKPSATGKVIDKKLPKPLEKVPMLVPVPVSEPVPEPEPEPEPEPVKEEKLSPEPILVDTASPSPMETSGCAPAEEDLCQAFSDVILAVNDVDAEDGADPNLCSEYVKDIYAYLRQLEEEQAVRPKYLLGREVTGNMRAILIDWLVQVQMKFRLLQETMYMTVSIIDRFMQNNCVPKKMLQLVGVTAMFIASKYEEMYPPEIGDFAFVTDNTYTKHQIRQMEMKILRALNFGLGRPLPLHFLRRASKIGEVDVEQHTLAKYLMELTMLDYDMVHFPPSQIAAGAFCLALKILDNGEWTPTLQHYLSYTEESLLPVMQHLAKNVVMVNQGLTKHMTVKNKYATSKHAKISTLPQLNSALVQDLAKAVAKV
assayExplanation: radiometric filter-binding kinase assay, Kinase HotSpot
experimentalConditions: compound 0.5 µM; ATP 10 µM
Returns: string. Value is label 1 if measured residual activity is below 80%, and label 0 if it is greater than or equal to it.

| smilesString | assignedLabel |
| --- | --- |
| Cn1cc(/C=C2\C(=O)Nc3ccc(S(N)(=O)=O)cc32)c2ccccc21 | label 1 |
| COc1cc2c(cc1OC)-c1[nH]nc(Nc3cccc(F)c3)c1C2 | label 0 |
| Cc1cc(Nc2nc(-c3ccccc3)nc3ccccc23)n[nH]1 | label 1 |
| O=C1NC(=O)c2cc(Nc3ccc(F)cc3)c(Nc3ccc(F)cc3)cc21 | label 0 |
